TARGET DESC: human DP1 receptor (Homo sapiens, UniProt Q13258)
Construct: expressed in transfected cells
Sequence (Q13258 whole entry): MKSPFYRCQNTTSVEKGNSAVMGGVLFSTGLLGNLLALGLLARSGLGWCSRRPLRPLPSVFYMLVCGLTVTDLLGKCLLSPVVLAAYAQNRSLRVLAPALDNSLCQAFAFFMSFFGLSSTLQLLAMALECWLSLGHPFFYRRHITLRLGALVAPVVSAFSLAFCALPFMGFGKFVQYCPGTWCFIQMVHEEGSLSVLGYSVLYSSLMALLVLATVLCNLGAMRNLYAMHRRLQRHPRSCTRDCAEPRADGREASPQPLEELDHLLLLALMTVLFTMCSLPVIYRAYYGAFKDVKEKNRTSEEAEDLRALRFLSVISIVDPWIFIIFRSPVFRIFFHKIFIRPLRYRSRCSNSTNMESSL
PROTOCOL TEXT: HTRF cAMP assay, recombinant human DP1 receptor in CHO-K1 cells
Type: cell-based
CONDITIONS USED: HTRF (cAMP) human DP1 receptor assay; mean of at least three determinations; read-out: EC50 hDP1
MEASURED ATTRIBUTE: EC50 (nM)
Just the number in nM, nothing appended.

{"STRUCTURE STRING": "O=C(O)COC[C@H]1CC[C@H](COC(=O)N(c2ccccc2)c2ccc(F)cc2)CC1", "EC50 (nM)": 620}
{"STRUCTURE STRING": "O=C(O)COC[C@H]1CC[C@H](COC(=O)N(c2ccc(F)cc2)c2cccc(F)c2)CC1", "EC50 (nM)": 808}
{"STRUCTURE STRING": "O=C(O)COC[C@H]1CC[C@@H](COC(=O)N(c2ccccc2)c2ccc(Cl)cc2)CC1", "EC50 (nM)": 980}
{"STRUCTURE STRING": "O=C(O)COC[C@H]1CC[C@H](COC(=O)N(c2ccccc2)c2ccc(F)c(F)c2)CC1", "EC50 (nM)": 5000}
{"STRUCTURE STRING": "COc1cccc(N(C(=O)OC[C@H]2CC[C@H](COCC(=O)O)CC2)c2ccccc2)c1", "EC50 (nM)": 1720}

(Q) Any idea what EC50 was measured for O=C(O)COC[C@H]1CC[C@H](COC(=O)N(c2ccccc2)c2ccc(Cl)cc2)CC1 ?
(A) 850
